Ref: patent US11213517B2

method notes: Plasma and brain concentrations of drugs at the end of the audiogenic seizure experiment (LC-MS)
Format: in vivo, mouse
condition context: DBA/2J, mouse, plasma, oral, analyte COMPOUND 1; COMPOUND 1 30 mg/kg 3 h + LEV 10 mg/kg 1 h before stimulus, oral gavage; mean ± SEM; read-out: Plasma concentration total
value kind: concentration at 3 h (ng/mL)
Numbers only, in ng/mL.

Problem: What does the record list as concentration at 3 h for N#Cc1ccc(Cn2ccc(NC(=O)Cc3ccc(C4(C(F)(F)F)CC4)cc3)n2)nc1 ?
Solution: 4120

* * *

method notes: Plasma and brain concentrations of drugs at the end of the audiogenic seizure experiment (LC-MS)
Format: in vivo, mouse
condition context: DBA/2J, mouse, brain, oral, analyte COMPOUND 1; COMPOUND 1 10 mg/kg 3 h + LEV 10 mg/kg 1 h before stimulus, oral gavage; mean ± SEM; read-out: Brain concentration total
value kind: concentration at 3 h (ng/g)
Give bare numbers, in ng/g.

Problem: Given N#Cc1ccc(Cn2ccc(NC(=O)Cc3ccc(C4(C(F)(F)F)CC4)cc3)n2)nc1 , state its recorded concentration at 3 h.
Solution: 2030

* * *

method notes: Plasma and brain concentrations of drugs at the end of the audiogenic seizure experiment (LC-MS)
Format: in vivo, mouse
condition context: DBA/2J, mouse, plasma, oral, 30 mg/kg, analyte VPA; vehicle 3 h + VPA 30 mg/kg 1 h before stimulus, oral gavage; mean ± SEM; read-out: Plasma concentration total
value kind: concentration at 1 h (ng/mL)
Give bare numbers, in ng/mL.

Problem: # input molecule: CCCC(CCC)C(=O)O ; wanted: its concentration at 1 h
Solution: 23000

* * *

method notes: Plasma and brain concentrations of drugs at the end of the audiogenic seizure experiment (LC-MS)
Assay type: in vivo, mouse
condition context: DBA/2J, mouse, brain, oral, analyte COMPOUND 1; COMPOUND 1 10 mg/kg 3 h + LEV 3 mg/kg 1 h before stimulus, oral gavage; mean ± SEM; read-out: Brain concentration total
Experimental: Briefly, blood was sampled from the vena cava caudalis with a syringe pre-filled with EDTA (ethylenediamine tetraacetic acid) as anticoagulant and centrifuged to yield plasma (for 10 minutes, at 4° C. and 5000 rpm (rounds per minute)). Brain was sampled and homogenized into one volume of cold phosphate buffer (pH 7.4). Following extraction with methanol, concentrations of the compound in plasma and brain were determined using liquid chromatography coupled to mass spectrometry. […]
value kind: concentration at 3 h (ng/g)
Answers are plain numbers, in ng/g.

Problem: GET /values?readout=concentration at 3 h&item= N#Cc1ccc(Cn2ccc(NC(=O)Cc3ccc(C4(C(F)(F)F)CC4)cc3)n2)nc1
Solution: 2520

* * *

method notes: Plasma and brain concentrations of drugs at the end of the audiogenic seizure experiment (LC-MS)
Assay type: in vivo, mouse
condition context: DBA/2J, mouse, brain, oral, 50 mg/kg, analyte LEV; vehicle 3 h + LEV 50 mg/kg 1 h before stimulus, oral gavage; mean ± SEM; read-out: Brain concentration total
value kind: concentration at 1 h (ng/g)
Give bare numbers, in ng/g.

Problem: Could you share which concentration at 1 h value was measured for CC[C@@H](C(N)=O)N1CCCC1=O [LEV, (S)-2-(2-oxopyrrolidin-1-yl)butanamide] ?
Solution: 11100

* * *

method notes: Plasma and brain concentrations of drugs at the end of the audiogenic seizure experiment (LC-MS)
Type: in vivo, mouse
condition context: DBA/2J, mouse, brain, oral, analyte LEV; COMPOUND 1 30 mg/kg 3 h + LEV 10 mg/kg 1 h before stimulus, oral gavage; mean ± SEM; read-out: Brain concentration total
value kind: concentration at 1 h

Problem: # get_value(readout='concentration at 1 h', item= CC[C@@H](C(N)=O)N1CCCC1=O [LEV, (S)-2-(2-oxopyrrolidin-1-yl)butanamide] )
Solution: 2150 ng/g

* * *

method notes: Plasma and brain concentrations of drugs at the end of the audiogenic seizure experiment (LC-MS)
Assay type: in vivo, mouse
condition context: DBA/2J, mouse, brain, oral, analyte LEV; COMPOUND 1 10 mg/kg 3 h + LEV 3 mg/kg 1 h before stimulus, oral gavage; mean ± SEM; read-out: Brain concentration total
value kind: concentration at 1 h (ng/g)
Give bare numbers, in ng/g.

Problem: Requested read-out: concentration at 1 h. Entry: CC[C@@H](C(N)=O)N1CCCC1=O [LEV, (S)-2-(2-oxopyrrolidin-1-yl)butanamide]
Solution: 787

* * *

method notes: Plasma and brain concentrations of drugs at the end of the audiogenic seizure experiment (LC-MS)
Format: in vivo, mouse
condition context: DBA/2J, mouse, plasma, oral, 3 mg/kg, analyte LEV; vehicle 3 h + LEV 3 mg/kg 1 h before stimulus, oral gavage; mean ± SEM; read-out: Plasma concentration total
value kind: concentration at 1 h (ng/mL)
Give bare numbers, in ng/mL.

Problem: What does the data say about its concentration at 1 h? Entry: CC[C@@H](C(N)=O)N1CCCC1=O [LEV, (S)-2-(2-oxopyrrolidin-1-yl)butanamide]
Solution: 1170

* * *

method notes: Plasma and brain concentrations of drugs at the end of the audiogenic seizure experiment (LC-MS)
Assay type: in vivo, mouse
condition context: DBA/2J, mouse, plasma, oral, analyte LTG; COMPOUND 1 30 mg/kg 3 h + LTG 10 mg/kg 1 h before stimulus, oral gavage; mean ± SEM; read-out: Plasma concentration total
value kind: concentration at 1 h (ng/mL)
Numbers only, in ng/mL.

Problem: concentration at 1 h lookup needed for Nc1nnc(-c2cccc(Cl)c2Cl)c(N)n1 , thanks.
Solution: 1330

* * *

method notes: Plasma and brain concentrations of drugs at the end of the audiogenic seizure experiment (LC-MS)
Type: in vivo, mouse
condition context: DBA/2J, mouse, brain, oral, analyte COMPOUND 1; COMPOUND 1 30 mg/kg 3 h + VPA 100 mg/kg 1 h before stimulus, oral gavage; mean ± SEM; read-out: Brain concentration total
value kind: concentration at 3 h (ng/g)
Give bare numbers, in ng/g.

Problem: # input compound: N#Cc1ccc(Cn2ccc(NC(=O)Cc3ccc(C4(C(F)(F)F)CC4)cc3)n2)nc1 ; wanted: its concentration at 3 h
Solution: 5980

* * *

method notes: Plasma and brain concentrations of drugs at the end of the audiogenic seizure experiment (LC-MS)
Assay type: in vivo, mouse
condition context: DBA/2J, mouse, plasma, oral, analyte COMPOUND 1; COMPOUND 1 30 mg/kg 3 h + VPA 100 mg/kg 1 h before stimulus, oral gavage; mean ± SEM; read-out: Plasma concentration total
Procedure: Briefly, blood was sampled from the vena cava caudalis with a syringe pre-filled with EDTA (ethylenediamine tetraacetic acid) as anticoagulant and centrifuged to yield plasma (for 10 minutes, at 4° C. and 5000 rpm (rounds per minute)). Brain was sampled and homogenized into one volume of cold phosphate buffer (pH 7.4). Following extraction with methanol, concentrations of the compound in plasma and brain were determined using liquid chromatography coupled to mass spectrometry. […]
value kind: concentration at 3 h (ng/mL)
Answers are plain numbers, in ng/mL.

Problem: If you can, please state the reported concentration at 3 h value of N#Cc1ccc(Cn2ccc(NC(=O)Cc3ccc(C4(C(F)(F)F)CC4)cc3)n2)nc1 .
Solution: 2820

* * *

method notes: Plasma and brain concentrations of drugs at the end of the audiogenic seizure experiment (LC-MS)
Format: in vivo, mouse
condition context: DBA/2J, mouse, plasma, oral, analyte LTG; COMPOUND 1 30 mg/kg 3 h + LTG 30 mg/kg 1 h before stimulus, oral gavage; mean ± SEM; read-out: Plasma concentration total
value kind: concentration at 1 h (ng/mL)
Numbers only, in ng/mL.

Problem: I am curious: what concentration at 1 h value has been reported for Nc1nnc(-c2cccc(Cl)c2Cl)c(N)n1 [LTG] ?
Solution: 2800

* * *

method notes: Plasma and brain concentrations of drugs at the end of the audiogenic seizure experiment (LC-MS)
Type: in vivo, mouse
condition context: DBA/2J, mouse, plasma, oral, analyte COMPOUND 1; COMPOUND 1 30 mg/kg 3 h + LEV 50 mg/kg 1 h before stimulus, oral gavage; mean ± SEM; read-out: Plasma concentration total
value kind: concentration at 3 h (ng/mL)
Numbers only, in ng/mL.

Problem: // returns reported concentration at 3 h for input N#Cc1ccc(Cn2ccc(NC(=O)Cc3ccc(C4(C(F)(F)F)CC4)cc3)n2)nc1
Solution: 3720

* * *

method notes: Plasma and brain concentrations of drugs at the end of the audiogenic seizure experiment (LC-MS)
Format: in vivo, mouse
condition context: DBA/2J, mouse, plasma, oral, analyte VPA; COMPOUND 1 30 mg/kg 3 h + VPA 200 mg/kg 1 h before stimulus, oral gavage; mean ± SEM; read-out: Plasma concentration total
Experimental: Briefly, blood was sampled from the vena cava caudalis with a syringe pre-filled with EDTA (ethylenediamine tetraacetic acid) as anticoagulant and centrifuged to yield plasma (for 10 minutes, at 4° C. and 5000 rpm (rounds per minute)). Brain was sampled and homogenized into one volume of cold phosphate buffer (pH 7.4). Following extraction with methanol, concentrations of the compound in plasma and brain were determined using liquid chromatography coupled to mass spectrometry. […]
value kind: concentration at 1 h (µg/mL)
One number for each entry, in µg/mL.

Problem: Fill in: concentration at 1 h of CCCC(CCC)C(=O)O is ___
Solution: 110
